Catalogue of remaining at 168 h values
- Protocol details: Stability of the compound in aqueous solution assessed as residual ratio at pH 3 up to 1 week by HPLC analysis relative to initial level
- Assay type: physicochemical
Where a SMILES comes first, the peptide text is derived from it. [ ]: non-standard residue; d: D form. Arg(Me) = CNC(=N)NCCC[C@H](N)C(=O)O; d4Pal = N[C@H](Cc1ccncc1)C(=O)O; azaGly = NNC(=O)O
Property label: remaining at 168 h (%)

[[record]]
compound = "CNC(=N)NCCC[C@H](NC(=O)[C@H](CC(C)C)NC(=O)NNC(=O)[C@H](Cc1ccccc1)NC(=O)[C@@H](NC(=O)[C@H](CC(N)=O)NC(=O)[C@@H](Cc1ccncc1)NC(=O)[C@@H](Cc1ccc(O)cc1)NC(C)=O)[C@@H](C)O)C(=O)N[C@@H](Cc1c[nH]c2ccccc12)C(N)=O"
unit_descriptor = "%"
recorded_result = 98.7

[[record]]
compound = "CNC(=N)NCCC[C@H](NC(=O)[C@H](CC(C)C)NC(=O)NNC(=O)[C@H](Cc1ccccc1)NC(=O)[C@H](CO)NC(=O)[C@H](CC(N)=O)NC(=O)[C@@H](Cc1ccncc1)NC(=O)[C@H](N)Cc1ccc(O)cc1)C(=O)N[C@@H](Cc1ccccc1)C(N)=O [KISS1-305] (H-[dY][d4Pal]NSF[azaGly]L[Arg(Me)]F-NH2)"
unit_descriptor = "%"
recorded_result = 99.4

[[record]]
compound = "CNC(=N)NCCC[C@H](NC(=O)[C@H](CC(C)C)NC(=O)NNC(=O)[C@H](Cc1ccccc1)NC(=O)[C@@H](NC(=O)[C@H](CC(N)=O)NC(=O)[C@@H](Cc1c[nH]c2ccccc12)NC(=O)[C@@H](Cc1ccc(O)cc1)NC(C)=O)[C@@H](C)O)C(=O)N[C@@H](Cc1c[nH]c2ccccc12)C(N)=O (Ac-[dY][dW]NTF[azaGly]L[Arg(Me)]W-NH2)"
unit_descriptor = "%"
recorded_result = 97.7


Value source: ChEMBL document CHEMBL3352485
